Where do these numbers come from? They come from PubChem BioAssay AID1963875.

system: KRAS-mutant PDC complex spheroid viability; test: Anticancer human tumor 186277-243-T-J2-PDC patient-derived colon adenocarcinoma cell line growth inhibition [KRAS2]; conditions: second compound 0.316 µM; first compound 0.000316 µM; stronger effect = lower value;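 further: viability read after seven days of compound exposure; 100% = DMSO vehicle-treated spheroids so lower means less viable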
readout: viability, T/C (%)
Numbers only, in %.

{"columns": ["compound", "viability, T/C (%)"],
 "data": [
  ["Cn1ncnc1[C@H]1c2n[nH]c(=O)c3cc(F)cc(c23)N[C@@H]1c1ccc(F)cc1 + CNCc1ccccc1-c1csc(C(C)Nc2nc(C)nc3cc(OC)c(OC)cc23)c1", 117],
  ["Cn1ncnc1[C@H]1c2n[nH]c(=O)c3cc(F)cc(c23)N[C@@H]1c1ccc(F)cc1 + CC1OCC2(CCN(c3cnc(Sc4ccnc(N)c4Cl)c(N)n3)CC2)C1N", 126],
  ["Cn1ncnc1[C@H]1c2n[nH]c(=O)c3cc(F)cc(c23)N[C@@H]1c1ccc(F)cc1 + C=CC(=O)N1CCN(c2nc(OCC3CCCN3C)nc3c2CCN(c2cccc4cccc(C)c24)C3)CC1CC#N", 92],
  ["CC(C)n1nc(-c2ccc3oc(N)nc3c2)c2c(N)ncnc21 + COc1cc2nc(C)nc(NC(C)c3cc(N)cc(C(F)(F)F)c3)c2cc1OC1CCOC1", 111]
]}

Below: the item to evaluate.
Briefly, viability, T/C measured for CC(=O)Nc1cccc(-n2c(=O)n(C3CC3)c(=O)c3c(Nc4ccc(I)cc4F)n(C)c(=O)c(C)c32)c1 + C=CC(=O)N1CCN(c2nc(OCC3CCCN3C)nc3c2CCN(c2cccc4cccc(C)c24)C3)CC1CC#N : 99
